System: Klebsiella pneumoniae
methodNotes: Ratio of Kcat to Km for Klebsiella pneumoniae 05-560 beta-lactamase IMP1
Each entry below carries its recorded kcat/Km.
measurementLabel: kcat/Km

>>> result("CC(C)(O/N=C(\\C(=O)N[C@@H]1C(=O)N2C(C(=O)[O-])=C(C[n+]3ccccc3)CS[C@H]12)c1csc(N)n1)C(=O)O [CEFTAZIDIME]")
"180000 M⁻¹ s⁻¹"
>>> result("CC1(C)S[C@@H]2[C@H](NC(=O)Cc3ccccc3)C(=O)N2[C@H]1C(=O)O")
"620000 M⁻¹ s⁻¹"
>>> result("CO/N=C(\\C(=O)N[C@@H]1C(=O)N2C(C(=O)O)=C(COC(C)=O)CS[C@H]12)c1csc(N)n1 [CEFOTAXIME]")
"350000 M⁻¹ s⁻¹"
>>> result("C[C@@H](O)[C@H]1C(=O)N2C(C(=O)O)=C(SCCNC=N)C[C@H]12 [IMIPENEM ANHYDROUS]")
"1.2e+06 M⁻¹ s⁻¹"
>>> result("C[C@H]1[C@H](NC(=O)/C(=N\\OC(C)(C)C(=O)O)c2csc(N)n2)C(=O)N1S(=O)(=O)O [AZTREONAM]")
"< 100 M⁻¹ s⁻¹"
>>> result("CO[C@@]1(NC(=O)Cc2cccs2)C(=O)N2C(C(=O)O)=C(COC(N)=O)CS[C@@H]21 [CEFOXITIN]")
"2e+06 M⁻¹ s⁻¹"
>>> result("CO/N=C(\\C(=O)N[C@@H]1C(=O)N2C(C(=O)[O-])=C(C[N+]3(C)CCCC3)CS[C@H]12)c1csc(N)n1")
"660000 M⁻¹ s⁻¹"
>>> result("CC1(C)S[C@@H]2[C@H](NC(=O)[C@H](N)c3ccccc3)C(=O)N2[C@H]1C(=O)O [AMPICILLIN]")
"4.8e+06 M⁻¹ s⁻¹"
>>> result("CC(=O)OCC1=C(C(=O)O)N2C(=O)[C@@H](NC(=O)Cc3cccs3)[C@H]2SC1 [CEPHALOTHIN]")
"2.4e+06 M⁻¹ s⁻¹"

###

Tested on: Klebsiella pneumoniae
methodNotes: Activity of Klebsiella pneumoniae 05-560 beta-lactamase IMP1 by spectrophotometry
Parameter threshold = 50 s⁻¹. Response is met when kcat meets or exceeds it, else not met.

>>> category("CC1(C)S[C@@H]2[C@H](NC(=O)Cc3ccccc3)C(=O)N2[C@H]1C(=O)O")
"met"
>>> category("CC1(C)S[C@@H]2[C@H](NC(=O)[C@H](N)c3ccccc3)C(=O)N2[C@H]1C(=O)O [AMPICILLIN]")
"met"
>>> category("CO/N=C(\\C(=O)N[C@@H]1C(=O)N2C(C(=O)O)=C(COC(C)=O)CS[C@H]12)c1csc(N)n1 [CEFOTAXIME]")
"not met"
>>> category("CO/N=C(\\C(=O)N[C@@H]1C(=O)N2C(C(=O)[O-])=C(C[N+]3(C)CCCC3)CS[C@H]12)c1csc(N)n1")
"not met"
>>> category("CC(=O)OCC1=C(C(=O)O)N2C(=O)[C@@H](NC(=O)Cc3cccs3)[C@H]2SC1 [CEPHALOTHIN]")
"not met"
>>> category("C[C@@H](O)[C@H]1C(=O)N2C(C(=O)O)=C(SCCNC=N)C[C@H]12 [IMIPENEM ANHYDROUS]")
"not met"
>>> category("CC(C)(O/N=C(\\C(=O)N[C@@H]1C(=O)N2C(C(=O)[O-])=C(C[n+]3ccccc3)CS[C@H]12)c1csc(N)n1)C(=O)O [CEFTAZIDIME]")
"not met"

###

Each entry below carries its recorded MIC.
System: Escherichia coli
methodNotes: Antibacterial activity against Escherichia coli J53 harboring beta-lactamase NDM-1 by Etest method
Format: functional
measurementLabel: MIC

>>> result("CO/N=C(\\C(=O)N[C@@H]1C(=O)N2C(C(=O)O)=C(COC(C)=O)CS[C@H]12)c1csc(N)n1")
"> 256 µg/mL"
>>> result("CO/N=C(\\C(=O)N[C@@H]1C(=O)N2C(C(=O)O)=C(COC(N)=O)CS[C@H]12)c1ccco1")
"> 256 µg/mL"
>>> result("CC1(C)S[C@@H]2[C@H](NC(=O)[C@H](N)c3ccccc3)C(=O)N2[C@H]1C(=O)O")
"> 256 µg/mL"
>>> result("C[C@@H](O)[C@H]1C(=O)N2C(C(=O)O)=C(S[C@@H]3CN[C@H](C(=O)N(C)C)C3)[C@H](C)[C@H]12")
"> 32 µg/mL"
>>> result("C[C@H]1[C@H](NC(=O)/C(=N\\OC(C)(C)C(=O)O)c2csc(N)n2)C(=O)N1S(=O)(=O)O")
"24 µg/mL"
>>> result("C[C@@H](O)[C@H]1C(=O)N2C(C(=O)O)=C(SCCNC=N)C[C@H]12 [IMIPENEM ANHYDROUS]")
"16 µg/mL"

###

Test system: Escherichia coli
methodNotes: Antibacterial activity against Escherichia coli J53 harboring beta-lactamase NDM-1 by Etest method
Format: functional
measurementLabel: MIC

>>> result("C[C@@H](O)[C@H]1C(=O)N2C(C(=O)O)=C(S[C@@H]3CN[C@H](C(=O)Nc4cccc(C(=O)O)c4)C3)[C@H](C)[C@H]12")
"> 32 µg/mL"
>>> result("CO[C@@]1(NC(=O)Cc2cccs2)C(=O)N2C(C(=O)O)=C(COC(N)=O)CS[C@@H]21 [CEFOXITIN]")
"> 256 µg/mL"
>>> result("CC(=O)OCC1=C(C(=O)O)N2C(=O)[C@@H](NC(=O)Cc3cccs3)[C@H]2SC1 [CEPHALOTHIN]")
"> 256 µg/mL"
>>> result("CCN1CCN(C(=O)N[C@@H](C(=O)N[C@@H]2C(=O)N3[C@@H]2SC(C)(C)[C@@H]3C(=O)O)c2ccccc2)C(=O)C1=O [PIPERACILLIN]")
"> 256 µg/mL"
>>> result("CC(C)(O/N=C(\\C(=O)N[C@@H]1C(=O)N2C(C(=O)[O-])=C(C[n+]3ccccc3)CS[C@H]12)c1csc(N)n1)C(=O)O [CEFTAZIDIME]")
"> 256 µg/mL"
>>> result("CO/N=C(\\C(=O)N[C@@H]1C(=O)N2C(C(=O)[O-])=C(C[N+]3(C)CCCC3)CS[C@H]12)c1csc(N)n1")
"24 µg/mL"
>>> result("O=C(O)c1cn(C2CC2)c2cc(N3CCNCC3)c(F)cc2c1=O [CIPROFLOXACIN]")
"0.047 µg/mL"

###

Tested on: Klebsiella pneumoniae
methodNotes: Activity of Klebsiella pneumoniae 05-560 beta-lactamase IMP1 by spectrophotometry
measurementLabel: Km (µM)

>>> recordednumber("CC(C)(O/N=C(\\C(=O)N[C@@H]1C(=O)N2C(C(=O)[O-])=C(C[n+]3ccccc3)CS[C@H]12)c1csc(N)n1)C(=O)O [CEFTAZIDIME]")
44
>>> recordednumber("CC(=O)OCC1=C(C(=O)O)N2C(=O)[C@@H](NC(=O)Cc3cccs3)[C@H]2SC1 [CEPHALOTHIN]")
21
>>> recordednumber("CC1(C)S[C@@H]2[C@H](NC(=O)Cc3ccccc3)C(=O)N2[C@H]1C(=O)O")
520

Sourced from ChEMBL document CHEMBL1649278
